Target: EpCAM (endogenous on HuCCT1 cells) (UniProt P16422)
Sequence: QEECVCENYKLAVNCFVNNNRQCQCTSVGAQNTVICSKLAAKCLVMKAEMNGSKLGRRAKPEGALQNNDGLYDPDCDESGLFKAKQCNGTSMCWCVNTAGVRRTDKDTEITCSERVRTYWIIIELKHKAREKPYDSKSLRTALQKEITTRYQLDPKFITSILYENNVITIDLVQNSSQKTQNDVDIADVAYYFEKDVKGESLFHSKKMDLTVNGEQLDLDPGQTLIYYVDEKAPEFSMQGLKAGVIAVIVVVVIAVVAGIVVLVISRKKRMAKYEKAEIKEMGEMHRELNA
Assay: flow cytometry on HuCCT1 cells
Details: phosphorothioate (marked * in Table 2): C*A*C*ACTTCTAAGAGGG*AACAGACGTCGATCTTTGCGGAACT*CCTG*C*G; Whole cells, 30 min on ice; HuCCT1 biotin block in PBS + 0.2% NaN3, 2.5 mM MgCl2, 0.1 mg/mL yeast total RNA (aptamer binding buffer not separately stated) …
experimental endpoint: Kd
Dear colleague, please send the value followed by its unit.

## Task Dear colleague, I am looking for the recorded Kd of the following sequence: CACACTTCTAAGAGGGAACAGACGTCGATCTTTGCGGAACTCCTGCG [PLD01 (B-aptamer)]
## Result 177 nM

###

Target: EpCAM (endogenous on HuCCT1 cells) (UniProt P16422)
Sequence: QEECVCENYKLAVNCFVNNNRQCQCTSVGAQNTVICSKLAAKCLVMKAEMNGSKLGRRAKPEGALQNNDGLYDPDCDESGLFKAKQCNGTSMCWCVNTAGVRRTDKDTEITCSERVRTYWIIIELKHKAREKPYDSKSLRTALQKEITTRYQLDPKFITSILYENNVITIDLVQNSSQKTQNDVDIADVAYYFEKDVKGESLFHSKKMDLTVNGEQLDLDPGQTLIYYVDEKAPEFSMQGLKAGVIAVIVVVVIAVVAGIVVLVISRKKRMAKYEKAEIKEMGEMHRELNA
Test: flow cytometry on HuCCT1 cells
Details: phosphorothioate (marked * in Table 2): G*A*C*CCACGGAGGTTG*CGTCCGTG*GGGG*A*C; Whole cells, 30 min on ice; HuCCT1 biotin block in PBS + 0.2% NaN3, 2.5 mM MgCl2, 0.1 mg/mL yeast total RNA (aptamer binding buffer not separately stated) …
experimental endpoint: pKd
Numbers only, as −log10 of the molar value.

## Task Query (sequence): GACCCACGGAGGTTGCGTCCGTGGGGGAC [PLD02 (B-aptamer)] ; field requested: pKd
## Result 6.63
